Assay: Plasma AMG 232 pharmacokinetics (HPLC-MS, non-compartmental analysis)
Type: in vivo, human
Conditions: human, plasma, oral, 480 mg, Day 1, dose escalation, 480 mg (n = 5–6); read-out: tmax, median (range)
parameter: Tmax (h)

[
  {
    "line.notation": "CC(C)[C@@H](CS(=O)(=O)C(C)C)N1C(=O)[C@@](C)(CC(=O)O)C[C@H](c2cccc(Cl)c2)[C@H]1c1ccc(Cl)cc1",
    "value.measured": 3
  }
]

###

Experiment: Plasma AMG 232 pharmacokinetics (HPLC-MS, non-compartmental analysis)
Assay type: in vivo, human
Conditions: human, plasma, oral, 240 mg, Day 7, dose escalation, 240 mg (n = 7–8); read-out: AUC24h, mean (SD)

[
  {
    "line.notation": "CC(C)[C@@H](CS(=O)(=O)C(C)C)N1C(=O)[C@@](C)(CC(=O)O)C[C@H](c2cccc(Cl)c2)[C@H]1c1ccc(Cl)cc1",
    "AUC(0-t) [ng·h/mL]": 10600
  }
]

###

Experiment: Plasma AMG 232 pharmacokinetics (HPLC-MS, non-compartmental analysis)
Assay type: in vivo, human
Conditions: human, plasma, oral, 240 mg, Day 7, dose escalation, 240 mg (n = 7–8); read-out: Cmax, mean (SD)
Protocol: Non-compartmental analysis was performed using WinNonlin Professional software, version 6.3. Parameters were summarized descriptively.

[
  {
    "line.notation": "CC(C)[C@@H](CS(=O)(=O)C(C)C)N1C(=O)[C@@](C)(CC(=O)O)C[C@H](c2cccc(Cl)c2)[C@H]1c1ccc(Cl)cc1",
    "result.units": "ng/mL",
    "Cmax": 1560
  }
]

###

Assay: Plasma AMG 232 pharmacokinetics (HPLC-MS, non-compartmental analysis)
Assay type: in vivo, human
Conditions: human, plasma, oral, 240 mg, Day 7, 240-mg dose expansion, Multiple Myeloma (n = 7–10); read-out: Vz/F, mean (SD)
parameter: Vd/F (L)

[
  {
    "line.notation": "CC(C)[C@@H](CS(=O)(=O)C(C)C)N1C(=O)[C@@](C)(CC(=O)O)C[C@H](c2cccc(Cl)c2)[C@H]1c1ccc(Cl)cc1",
    "result.units": "L",
    "value.measured": 859
  }
]

###

Test: Plasma AMG 232 pharmacokinetics (HPLC-MS, non-compartmental analysis)
Type: in vivo, human
Conditions: human, plasma, oral, 240 mg, Day 1, 240-mg dose expansion, ER + PR– Breast (n = 4); read-out: tmax, median (range)
parameter: Tmax (h)

[
  {
    "line.notation": "CC(C)[C@@H](CS(=O)(=O)C(C)C)N1C(=O)[C@@](C)(CC(=O)O)C[C@H](c2cccc(Cl)c2)[C@H]1c1ccc(Cl)cc1",
    "result.units": "h",
    "value.measured": 2.1
  }
]

###

Assay: Plasma AMG 232 pharmacokinetics (HPLC-MS, non-compartmental analysis)
Assay type: in vivo, human
Settings: human, plasma, oral, 240 mg, Day 7, 240-mg dose expansion, DDLPS (n = 6–10); read-out: AUC24h, mean (SD)

[
  {
    "molecule": "CC(C)[C@@H](CS(=O)(=O)C(C)C)N1C(=O)[C@@](C)(CC(=O)O)C[C@H](c2cccc(Cl)c2)[C@H]1c1ccc(Cl)cc1 [AMG 232]",
    "AUC(0-t), µg·h/mL": 10.8
  }
]
